Value source: patent US20110143948A1

Test system: ncRNAs (SEQ ID NO 28-89)
PROTOCOL DESCRIPTION: ncRNA arrays of melanocytes, keratinocytes, normal skin, melanoma cell lines and patient samples
Set-up: species or system human
MEASUREMENT CONTEXT: melanoma patient 22 sample compared to normal skin
Method: An ncRNA array platform that contains over 10,000 putative (>200 nt) ncRNAs including most of the known ncRNAs in mouse and human was conducted to evaluate ncRNAs within melanoma. Lack of coding potential was estimated by an algorithm that scores various characteristics of protein-coding genes, including open reading frame length, synonymous/non-synonymous base substitution rates and similarity to known proteins. […]
Just a reminder that ties go to n: only ncRNA array expression, patient 22 strictly below -0.02 counts as y.

SEQ ID NO 74 (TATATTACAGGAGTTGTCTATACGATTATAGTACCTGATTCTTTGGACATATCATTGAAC; listed as DNA, chemistry not given here; listed as Homo sapiens) :: n
SEQ ID NO 50 (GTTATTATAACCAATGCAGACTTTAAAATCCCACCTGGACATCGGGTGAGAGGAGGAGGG; listed as DNA, chemistry not given here; listed as Homo sapiens) :: y
SEQ ID NO 31 (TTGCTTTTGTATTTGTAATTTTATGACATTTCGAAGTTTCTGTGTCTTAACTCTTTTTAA; listed as DNA, chemistry not given here; listed as Homo sapiens) :: n
SEQ ID NO 86 (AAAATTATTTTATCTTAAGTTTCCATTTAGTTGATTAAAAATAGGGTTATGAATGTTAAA; listed as DNA, chemistry not given here; listed as Homo sapiens) :: n
SEQ ID NO 65 (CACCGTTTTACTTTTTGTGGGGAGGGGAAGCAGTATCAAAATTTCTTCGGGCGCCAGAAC; listed as DNA, chemistry not given here; listed as Homo sapiens) :: y
SEQ ID NO 58 (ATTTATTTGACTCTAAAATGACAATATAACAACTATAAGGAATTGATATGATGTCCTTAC; listed as DNA, chemistry not given here; listed as Homo sapiens) :: y
SEQ ID NO 76 (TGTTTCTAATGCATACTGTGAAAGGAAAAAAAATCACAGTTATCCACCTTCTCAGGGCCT; listed as DNA, chemistry not given here; listed as Homo sapiens) :: y
SEQ ID NO 70 (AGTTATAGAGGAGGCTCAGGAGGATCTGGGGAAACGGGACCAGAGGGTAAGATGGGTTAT; listed as DNA, chemistry not given here; listed as Homo sapiens) :: y
SEQ ID NO 57 (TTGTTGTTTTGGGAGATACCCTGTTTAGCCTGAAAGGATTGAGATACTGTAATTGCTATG; listed as DNA, chemistry not given here; listed as Homo sapiens) :: n
SEQ ID NO 45 (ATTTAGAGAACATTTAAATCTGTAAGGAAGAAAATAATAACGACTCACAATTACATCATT; listed as DNA, chemistry not given here; listed as Homo sapiens) :: y
SEQ ID NO 60 (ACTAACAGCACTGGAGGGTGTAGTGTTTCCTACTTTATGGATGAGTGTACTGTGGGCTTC; listed as DNA, chemistry not given here; listed as Homo sapiens) :: n
SEQ ID NO 78 (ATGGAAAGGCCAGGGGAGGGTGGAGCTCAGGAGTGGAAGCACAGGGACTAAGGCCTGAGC; listed as DNA, chemistry not given here; listed as Homo sapiens) :: y
SEQ ID NO 42 (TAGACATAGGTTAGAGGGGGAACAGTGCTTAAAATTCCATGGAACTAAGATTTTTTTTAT; listed as DNA, chemistry not given here; listed as Homo sapiens) :: y
SEQ ID NO 67 (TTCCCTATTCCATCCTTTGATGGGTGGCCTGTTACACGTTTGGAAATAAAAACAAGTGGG; listed as DNA, chemistry not given here; listed as Homo sapiens) :: n
SEQ ID NO 33 (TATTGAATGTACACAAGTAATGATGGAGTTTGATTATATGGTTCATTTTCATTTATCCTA; DNA, backbone and methylation of C not given here; listed as Homo sapiens) :: n
SEQ ID NO 49 (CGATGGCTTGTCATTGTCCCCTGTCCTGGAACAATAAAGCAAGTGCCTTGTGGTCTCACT; listed as DNA, chemistry not given here; listed as Homo sapiens) :: y
SEQ ID NO 72 (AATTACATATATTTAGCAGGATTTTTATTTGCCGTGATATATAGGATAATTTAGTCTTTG; listed as DNA, chemistry not given here; listed as Homo sapiens) :: n
SEQ ID NO 41 (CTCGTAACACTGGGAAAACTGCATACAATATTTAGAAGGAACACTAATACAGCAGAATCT; listed as DNA, chemistry not given here; listed as Homo sapiens) :: y
SEQ ID NO 82 (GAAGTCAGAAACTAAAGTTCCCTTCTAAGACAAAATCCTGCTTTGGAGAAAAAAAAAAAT; listed as DNA, chemistry not given here; listed as Homo sapiens) :: y

---

Test system: ncRNAs (SEQ ID NO 28-89)
PROTOCOL DESCRIPTION: ncRNA arrays of melanocytes, keratinocytes, normal skin, melanoma cell lines and patient samples
Design: species or system human
MEASUREMENT CONTEXT: melanoma patient 3 sample compared to normal skin
Just a reminder that ties go to not met: only ncRNA array expression, patient 3 strictly below -1 counts as met.

SEQ ID NO 87 (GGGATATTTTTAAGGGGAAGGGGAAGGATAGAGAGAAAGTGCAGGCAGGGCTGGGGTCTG; listed as DNA, chemistry not given here; listed as Homo sapiens) :: met
SEQ ID NO 76 (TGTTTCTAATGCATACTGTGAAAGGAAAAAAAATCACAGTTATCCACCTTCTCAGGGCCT; listed as DNA, chemistry not given here; listed as Homo sapiens) :: met
SEQ ID NO 83 (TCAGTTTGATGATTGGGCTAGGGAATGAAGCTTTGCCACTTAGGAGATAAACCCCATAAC; listed as DNA, chemistry not given here; listed as Homo sapiens) :: met
SEQ ID NO 65 (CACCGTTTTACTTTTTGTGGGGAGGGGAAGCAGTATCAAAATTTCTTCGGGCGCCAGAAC; listed as DNA, chemistry not given here; listed as Homo sapiens) :: met
SEQ ID NO 64 (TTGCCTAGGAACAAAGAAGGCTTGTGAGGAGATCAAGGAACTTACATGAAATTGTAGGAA; listed as DNA, chemistry not given here; listed as Homo sapiens) :: not met

---

System: ncRNAs (SEQ ID NO 28-89)
PROTOCOL DESCRIPTION: ncRNA arrays of melanocytes, keratinocytes, normal skin, melanoma cell lines and patient samples
Set-up: species or system human
MEASUREMENT CONTEXT: melanoma patient 6 sample compared to normal skin
MEASURED ATTRIBUTE: ncRNA array expression, patient 6

SEQ ID NO 84 (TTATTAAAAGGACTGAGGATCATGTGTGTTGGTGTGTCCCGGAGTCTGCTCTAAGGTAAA; listed as DNA, chemistry not given here; listed as Homo sapiens) :: 0.3741
SEQ ID NO 57 (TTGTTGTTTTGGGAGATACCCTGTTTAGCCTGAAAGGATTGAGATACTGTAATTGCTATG; listed as DNA, chemistry not given here; listed as Homo sapiens) :: 1.68
SEQ ID NO 42 (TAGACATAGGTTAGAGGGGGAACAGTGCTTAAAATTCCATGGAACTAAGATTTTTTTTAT; listed as DNA, chemistry not given here; listed as Homo sapiens) :: −1.445
SEQ ID NO 76 (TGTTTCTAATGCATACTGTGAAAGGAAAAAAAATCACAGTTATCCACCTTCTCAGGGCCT; listed as DNA, chemistry not given here; listed as Homo sapiens) :: 0.3953
SEQ ID NO 51 (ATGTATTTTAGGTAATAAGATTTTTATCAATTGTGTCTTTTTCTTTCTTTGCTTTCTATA; listed as DNA, chemistry not given here; listed as Homo sapiens) :: 1.115
SEQ ID NO 73 (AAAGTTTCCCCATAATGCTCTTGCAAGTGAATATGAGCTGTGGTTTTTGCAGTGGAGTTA; listed as DNA, chemistry not given here; listed as Homo sapiens) :: 1.506
SEQ ID NO 69 (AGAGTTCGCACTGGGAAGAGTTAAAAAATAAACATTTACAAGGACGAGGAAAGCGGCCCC; listed as DNA, chemistry not given here; listed as Homo sapiens) :: −0.5526
SEQ ID NO 70 (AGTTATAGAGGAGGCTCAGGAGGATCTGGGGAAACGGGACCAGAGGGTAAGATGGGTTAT; listed as DNA, chemistry not given here; listed as Homo sapiens) :: −1.483
SEQ ID NO 67 (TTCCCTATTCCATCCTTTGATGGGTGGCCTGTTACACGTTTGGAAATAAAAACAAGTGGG; listed as DNA, chemistry not given here; listed as Homo sapiens) :: 1.481
SEQ ID NO 75 (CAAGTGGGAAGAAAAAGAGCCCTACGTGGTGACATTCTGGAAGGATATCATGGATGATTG; listed as DNA, chemistry not given here; listed as Homo sapiens) :: 1.853
SEQ ID NO 63 (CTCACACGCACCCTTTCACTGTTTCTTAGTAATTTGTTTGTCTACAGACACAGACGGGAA; listed as DNA, chemistry not given here; listed as Homo sapiens) :: −0.5921
SEQ ID NO 50 (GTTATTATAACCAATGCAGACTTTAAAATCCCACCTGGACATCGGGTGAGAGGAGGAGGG; listed as DNA, chemistry not given here; listed as Homo sapiens) :: −1.159
